FYI, the data here is from PubChem BioAssay.

- Subject Of Test: Nuclear receptor coactivator 2 (Homo sapiens) (UniProt Q15596)
- Sequence (Q15596 whole entry, looked up): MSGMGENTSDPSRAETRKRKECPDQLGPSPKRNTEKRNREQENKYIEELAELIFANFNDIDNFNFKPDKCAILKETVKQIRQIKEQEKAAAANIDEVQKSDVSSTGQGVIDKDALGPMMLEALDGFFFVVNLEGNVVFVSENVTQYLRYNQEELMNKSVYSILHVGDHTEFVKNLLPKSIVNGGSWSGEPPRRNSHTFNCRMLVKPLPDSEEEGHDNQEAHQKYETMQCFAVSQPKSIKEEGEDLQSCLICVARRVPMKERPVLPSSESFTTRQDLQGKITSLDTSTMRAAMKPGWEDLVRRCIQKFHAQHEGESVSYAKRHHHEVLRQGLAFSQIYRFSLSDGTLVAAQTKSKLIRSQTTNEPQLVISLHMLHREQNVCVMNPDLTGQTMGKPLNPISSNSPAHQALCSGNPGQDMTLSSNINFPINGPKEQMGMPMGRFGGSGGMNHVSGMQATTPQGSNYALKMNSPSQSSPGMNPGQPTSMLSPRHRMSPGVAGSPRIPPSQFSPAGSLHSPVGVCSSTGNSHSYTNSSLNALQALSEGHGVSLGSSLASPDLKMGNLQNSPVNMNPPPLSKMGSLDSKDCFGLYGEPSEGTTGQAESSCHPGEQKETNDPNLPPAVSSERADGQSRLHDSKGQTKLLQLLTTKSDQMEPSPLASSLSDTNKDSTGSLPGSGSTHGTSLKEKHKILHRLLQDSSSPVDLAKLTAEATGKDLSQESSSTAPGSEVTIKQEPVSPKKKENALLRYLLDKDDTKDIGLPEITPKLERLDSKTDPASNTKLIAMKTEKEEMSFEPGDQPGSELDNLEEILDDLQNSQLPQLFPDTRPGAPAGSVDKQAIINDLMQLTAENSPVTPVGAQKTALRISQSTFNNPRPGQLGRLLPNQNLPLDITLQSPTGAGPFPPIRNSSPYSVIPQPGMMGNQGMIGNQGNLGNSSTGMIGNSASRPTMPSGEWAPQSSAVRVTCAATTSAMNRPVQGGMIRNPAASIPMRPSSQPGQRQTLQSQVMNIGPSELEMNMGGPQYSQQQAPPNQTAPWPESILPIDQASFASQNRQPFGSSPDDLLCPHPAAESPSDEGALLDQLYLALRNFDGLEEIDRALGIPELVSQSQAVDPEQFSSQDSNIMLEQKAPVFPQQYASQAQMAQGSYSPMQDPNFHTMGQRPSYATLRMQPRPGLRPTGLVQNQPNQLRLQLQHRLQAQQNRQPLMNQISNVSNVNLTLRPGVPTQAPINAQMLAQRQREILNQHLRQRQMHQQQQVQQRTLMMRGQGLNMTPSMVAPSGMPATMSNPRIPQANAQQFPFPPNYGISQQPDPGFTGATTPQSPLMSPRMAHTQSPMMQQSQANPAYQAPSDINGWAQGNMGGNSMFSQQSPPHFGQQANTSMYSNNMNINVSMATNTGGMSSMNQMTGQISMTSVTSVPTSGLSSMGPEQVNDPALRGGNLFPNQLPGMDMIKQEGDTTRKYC
- Procedure Details: SRC2 coactivator transcriptional activity inhibitors, confirmation, cell-based, luminescence, HEK293, triplicate (AID 652008);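 also: 0% = DMSO-treated cells and 100% = Gossypol at 36 µM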
- Assay Conditions: HEK293 GAL4-SRC2 luciferase reporter, at 8.9 µM, stronger effect = higher value
Experimental Readout: inhibition (%)
Dear colleague, please return just the value in %, with no unit written.

Reference set (10 entries):
>>> observed_measurement("CC(=O)Nc1ccc(Nc2cc(C)nc3c(-c4ccccc4)cnn23)cc1")
35.7
>>> observed_measurement("CCOc1ccc2oc(C(=O)NCc3ccccc3CN3CCCC3)c(C)c2c1")
-12.9
>>> observed_measurement("CCOc1ccc(-c2nc(CSCC(=O)N3CCN(c4cccc(OC)c4)CC3)c(C)o2)cc1")
49.8
>>> observed_measurement("O=S(=O)(c1ccccc1)N1CCC(O)(CSc2ccc(F)cc2)CC1")
13.4
>>> observed_measurement("CCc1cc2c(Sc3nc4ccccc4s3)ncnc2s1")
42.6
>>> observed_measurement("S=C(NCc1ccc(Cl)cc1)NC1CCN(Cc2ccccc2)CC1")
19.2
>>> observed_measurement("O=C(O)c1ccc(Oc2ccc(S(=O)(=O)c3ccc(C(=O)O)c(C(=O)O)c3)cc2)cc1")
-6.84
>>> observed_measurement("Nn1c(SCC(=O)Nc2cc(C(F)(F)F)ccc2Cl)nncc1=O")
-1.26
>>> observed_measurement("O=C(/C=C/c1cccs1)c1cc(Cl)ccc1OC(=O)N1CCOCC1")
-4.35
>>> observed_measurement("CCCC(=O)Nc1cccc(NC(=O)c2ccccc2Br)c1")
-17.8

Read the next record carefully.
### Prompt For the molecule `Fc1ccc(-c2nnc(NC3=NCCCCC3)o2)cc1` , what inhibition is on record?
### Response 31.4
